- targetOrTestSystem: T1, ZFP SBS#212 (synthetic)
- T1 chain: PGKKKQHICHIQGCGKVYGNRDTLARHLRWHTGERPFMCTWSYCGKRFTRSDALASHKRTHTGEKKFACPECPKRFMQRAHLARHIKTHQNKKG
- experimentalProtocol: EMSA
- cond: tags: MBP fusion
quantity: Kd (µM)
Answers are plain numbers, in µM.

Given the binder GGAGTGGTT (dsDNA) DNA 1: GGAGTGGTT DNA 2: AACCACTCC , what is its reported Kd?
0.4

Sourced from patent US20030068675
